# test target: DRB1*1201 (DR5w12)
# procedure details: binding to purified HLA
I'd be grateful if you could share measured pIC50 for these entries.
Give bare numbers, as −log10 of the molar value.

GTVAALNNSIGVLGV [BPN' Y217L .70]; 7.10

Consider the record given below.
What does the record list as pIC50 for NGIEWAIANNMDVIN [BPN' Y217L .109] ?
5.91
